For each entry below, report its log10 EC50 value.
Test target: Y4 receptor (Homo sapiens)
Sequence (P50391 whole entry): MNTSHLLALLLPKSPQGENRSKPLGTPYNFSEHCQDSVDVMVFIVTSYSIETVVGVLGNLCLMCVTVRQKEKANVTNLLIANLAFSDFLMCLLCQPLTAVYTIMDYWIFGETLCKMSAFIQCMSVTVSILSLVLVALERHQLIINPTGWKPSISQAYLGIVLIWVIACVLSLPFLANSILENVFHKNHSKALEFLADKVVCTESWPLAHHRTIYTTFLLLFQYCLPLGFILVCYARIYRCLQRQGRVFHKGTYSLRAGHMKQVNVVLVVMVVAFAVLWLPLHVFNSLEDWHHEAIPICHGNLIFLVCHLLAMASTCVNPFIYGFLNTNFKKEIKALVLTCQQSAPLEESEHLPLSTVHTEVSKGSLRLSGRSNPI
Experiment summary: NPY4 cAMP HTRF Agonist Assay
Experimental conditions: human Y4 stable CHO clonal cells; inhibitory cAMP assay with Forskolin and IBMX, 30 minutes at room temperature
Field: value | Transform: log10 | Quantity: EC50 | Unit: nM

Name the reported log10 EC50 value associated with the molecule O=C(Nc1ccccc1)N[C@@H]1CCCC[C@H]1N[C@H]1CCCN(c2ccc([N+](=O)[O-])cc2)CC1 [Example 52]
3.46

What value of log10 EC50 has been recorded for this entry: O=C(Nc1ccc(OC(F)(F)F)cc1)N[C@@H]1CCCC[C@H]1N[C@H]1CCCN(c2ccc([N+](=O)[O-])cc2)C1 [Example 3]
1.66

Given the molecule Cc1ccc(COC(=O)N[C@@H]2CCCC[C@H]2N[C@H]2CCCN(c3ccc(C(F)(F)F)cc3)C2)cc1 [Example 63] , what is its reported log10 EC50?
2.71

Need log10 EC50, item O=C(Nc1ccccc1)N[C@@H]1CCCC[C@H]1N[C@H]1CCCN(c2ccc([N+](=O)[O-])cc2)C1 [Example 1]
1.91

// returns reported log10 EC50 for input N#Cc1ccc(N2CCC[C@H](N[C@@H]3CCCC[C@H]3NC(=O)Nc3cccc(O)c3)C2)cc1 [Example 36]
2.79

Which value of log10 EC50 has been reported for C[C@]1(N[C@@H]2CCCC[C@H]2NC(=O)OCc2ccccc2)CCCN(c2ccc([N+](=O)[O-])cc2)C1 [Example 58] in the records?
1.00

----------
Test target: UniProt P50391
Experiment summary: NPY4 cAMP HTRF Agonist Assay
Experimental conditions: human Y4 stable CHO clonal cells; inhibitory cAMP assay with Forskolin and IBMX, 30 minutes at room temperature
Assign pEC50 to each entry below.
Scale note: pEC50 = -log10(concentration in M).

Any idea what pEC50 was measured for O=C(Nc1cc(C(F)(F)F)cc(C(F)(F)F)c1)N[C@@H]1CCCC[C@H]1N[C@H]1CCCN(c2ccc(C(F)(F)F)cc2)C1 [Example 89] ?
5.63

Suppose we examine the molecule O=C(Nc1ccc(OC(F)(F)F)cc1)N[C@@H]1CCCC[C@H]1N[C@H]1C[C@@H]2C[C@H]1N(c1ccc([N+](=O)[O-])cc1)C2 [Example 4] ; what pEC50 value has been reported?
7.60

Which value of pEC50 has been reported for Cc1nnc(-c2ccc(N3CCC[C@H](N[C@@H]4CCCC[C@H]4NC(=O)OCc4ccccc4)C3)cc2)o1 [Example 7] in the records?
7.14
